Below, each entry is listed alongside its reported IC50.
Target: Fatty acid synthase (Homo sapiens)
Sequence (P49327 whole entry, the tested form may be a part): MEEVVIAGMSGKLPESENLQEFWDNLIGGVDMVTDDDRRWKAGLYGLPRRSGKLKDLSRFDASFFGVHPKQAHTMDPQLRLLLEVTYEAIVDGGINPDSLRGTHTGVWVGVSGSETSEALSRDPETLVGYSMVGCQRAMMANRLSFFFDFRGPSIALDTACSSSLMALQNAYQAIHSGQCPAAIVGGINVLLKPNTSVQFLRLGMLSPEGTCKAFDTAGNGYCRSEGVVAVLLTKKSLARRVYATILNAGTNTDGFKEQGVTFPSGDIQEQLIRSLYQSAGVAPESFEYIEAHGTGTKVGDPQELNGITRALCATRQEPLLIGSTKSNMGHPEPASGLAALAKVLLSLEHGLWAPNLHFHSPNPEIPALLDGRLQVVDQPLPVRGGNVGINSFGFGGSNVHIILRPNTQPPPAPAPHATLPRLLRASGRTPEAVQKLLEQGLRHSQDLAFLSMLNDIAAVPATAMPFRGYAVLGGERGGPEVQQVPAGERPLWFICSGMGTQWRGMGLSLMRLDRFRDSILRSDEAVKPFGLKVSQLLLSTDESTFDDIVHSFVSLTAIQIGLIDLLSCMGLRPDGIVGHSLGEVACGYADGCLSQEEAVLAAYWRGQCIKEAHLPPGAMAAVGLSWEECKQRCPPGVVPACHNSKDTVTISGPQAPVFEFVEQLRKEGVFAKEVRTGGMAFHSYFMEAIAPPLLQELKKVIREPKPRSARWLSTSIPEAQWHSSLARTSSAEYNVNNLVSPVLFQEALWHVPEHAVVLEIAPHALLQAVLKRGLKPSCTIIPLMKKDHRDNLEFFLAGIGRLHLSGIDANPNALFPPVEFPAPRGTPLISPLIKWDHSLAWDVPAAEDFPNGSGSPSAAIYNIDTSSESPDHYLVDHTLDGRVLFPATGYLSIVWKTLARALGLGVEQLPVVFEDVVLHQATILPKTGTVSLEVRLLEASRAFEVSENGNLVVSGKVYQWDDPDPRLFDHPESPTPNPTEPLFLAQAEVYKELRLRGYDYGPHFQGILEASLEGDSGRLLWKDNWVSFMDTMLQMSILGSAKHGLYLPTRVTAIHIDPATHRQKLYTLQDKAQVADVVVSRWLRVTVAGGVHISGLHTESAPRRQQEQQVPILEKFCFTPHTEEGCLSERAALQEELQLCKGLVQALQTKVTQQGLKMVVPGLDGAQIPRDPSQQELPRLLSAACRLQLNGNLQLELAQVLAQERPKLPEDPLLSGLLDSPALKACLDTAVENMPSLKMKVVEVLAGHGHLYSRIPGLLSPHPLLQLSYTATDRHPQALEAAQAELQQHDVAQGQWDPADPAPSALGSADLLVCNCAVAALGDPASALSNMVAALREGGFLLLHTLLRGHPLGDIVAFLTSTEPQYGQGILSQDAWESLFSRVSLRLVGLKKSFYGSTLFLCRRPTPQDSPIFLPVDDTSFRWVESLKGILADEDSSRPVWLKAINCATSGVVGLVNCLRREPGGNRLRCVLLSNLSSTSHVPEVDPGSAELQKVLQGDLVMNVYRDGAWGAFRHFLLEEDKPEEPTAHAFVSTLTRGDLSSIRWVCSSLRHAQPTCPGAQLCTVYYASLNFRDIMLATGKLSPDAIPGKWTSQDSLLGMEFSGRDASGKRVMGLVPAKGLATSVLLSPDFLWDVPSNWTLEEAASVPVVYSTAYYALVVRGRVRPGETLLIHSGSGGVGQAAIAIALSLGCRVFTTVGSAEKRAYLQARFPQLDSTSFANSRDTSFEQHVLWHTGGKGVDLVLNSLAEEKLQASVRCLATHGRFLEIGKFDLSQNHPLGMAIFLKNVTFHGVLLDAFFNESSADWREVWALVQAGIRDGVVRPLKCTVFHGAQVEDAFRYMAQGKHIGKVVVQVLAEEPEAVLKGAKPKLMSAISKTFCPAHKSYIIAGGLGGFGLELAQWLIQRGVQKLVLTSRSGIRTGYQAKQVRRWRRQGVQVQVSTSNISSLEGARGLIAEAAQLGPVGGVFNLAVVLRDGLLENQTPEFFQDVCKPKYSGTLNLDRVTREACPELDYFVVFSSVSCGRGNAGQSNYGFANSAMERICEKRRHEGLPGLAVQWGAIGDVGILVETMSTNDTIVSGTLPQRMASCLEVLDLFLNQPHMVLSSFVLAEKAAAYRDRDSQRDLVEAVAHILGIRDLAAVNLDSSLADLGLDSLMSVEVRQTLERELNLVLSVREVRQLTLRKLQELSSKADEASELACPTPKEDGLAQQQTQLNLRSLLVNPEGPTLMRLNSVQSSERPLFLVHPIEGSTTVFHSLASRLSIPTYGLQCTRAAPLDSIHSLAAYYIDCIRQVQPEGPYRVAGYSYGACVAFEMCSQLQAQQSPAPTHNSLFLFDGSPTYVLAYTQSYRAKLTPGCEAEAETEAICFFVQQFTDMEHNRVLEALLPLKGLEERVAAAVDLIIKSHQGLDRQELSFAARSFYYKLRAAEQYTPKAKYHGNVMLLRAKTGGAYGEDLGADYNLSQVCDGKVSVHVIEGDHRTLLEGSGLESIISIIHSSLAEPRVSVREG
Assay: FAS thioesterase domain inhibitors, dose response, biochemical, endpoint fluorescence intensity, uHTS hits (AID 624327);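 also: fluorescence from hydrolysis of an O-methyl fluorescein acyl ester substrate by the enzyme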
Type: functional
Active and inactive are the calls of the source.

smi | IC50
O=C(Cn1nc2ccccc2n1)N/N=C/c1cc([N+](=O)[O-])ccc1O | 3.76 µM (active)
O=C(NNc1cccc([N+](=O)[O-])c1)/C(=C\c1cccnc1)NC(=O)c1ccccc1 | 6.04 µM (active)
N#CC1CCN(C(=O)c2ccc3c(Cl)c4c(nc3c2)CCCC4)CC1 | 2.16 µM (active)
C/C(=N/Nc1ccc(C(=O)O)cc1)c1ccc2c(c1)Nc1ccccc1S2 | 13.2 µM (active)
O=C1NC(=O)/C(=C2\C(=O)Nc3ccc([N+](=O)[O-])cc32)S1 | 13.8 µM (active)
COc1cc(/C=C(\C#N)c2nc3ccccc3s2)cc([N+](=O)[O-])c1O | 12.4 µM (active)
CCc1ccc(C(=O)COC(=O)c2cc([N+](=O)[O-])ccc2NCCO)cc1 | 1.87 µM (active)
CCOC(=O)[C@]12Cc3cc(C)ccc3[C@H]1N(C1CCCCC1)C(=O)c1cc(OC)ccc12 | 5.45 µM (active)

* * *

Test: ZM109 Env clade C HIV-1 fusion inhibitors, dose response, HeLa effector, CEM target cells, luciferase, cherry-pick (AID 652058)
Assay type: functional, cell-based
Active and inactive are the calls of the source.
Below, each entry is listed alongside its reported AC50.

smi | AC50
CCOc1ccc(S(=O)(=O)NCc2ccncc2)cc1 | < 260 nM (active)
CCN(C[C@H]1N[C@@](CC)(C(=O)OC)[C@H]2C(=O)N(Cc3ccccc3)C(=O)[C@@H]12)C(=O)Nc1ccc(Cl)cc1 | < 260 nM (active)
Cc1ccc(S(=O)(=O)N2CCN(S(=O)(=O)c3ccc(C)cc3)C2c2ccccc2)cc1 | 4200 nM (active)
CN1C(=O)c2cc(NC(=O)c3cscn3)ccc2OC[C@@H]2O[C@H](CC(=O)NCc3ccc(Cl)c(Cl)c3)CC[C@H]21 | 6620 nM (active)

* * *

Target: High affinity choline transporter 1 (Homo sapiens, UniProt Q9GZV3)
Sequence (Q9GZV3 whole entry): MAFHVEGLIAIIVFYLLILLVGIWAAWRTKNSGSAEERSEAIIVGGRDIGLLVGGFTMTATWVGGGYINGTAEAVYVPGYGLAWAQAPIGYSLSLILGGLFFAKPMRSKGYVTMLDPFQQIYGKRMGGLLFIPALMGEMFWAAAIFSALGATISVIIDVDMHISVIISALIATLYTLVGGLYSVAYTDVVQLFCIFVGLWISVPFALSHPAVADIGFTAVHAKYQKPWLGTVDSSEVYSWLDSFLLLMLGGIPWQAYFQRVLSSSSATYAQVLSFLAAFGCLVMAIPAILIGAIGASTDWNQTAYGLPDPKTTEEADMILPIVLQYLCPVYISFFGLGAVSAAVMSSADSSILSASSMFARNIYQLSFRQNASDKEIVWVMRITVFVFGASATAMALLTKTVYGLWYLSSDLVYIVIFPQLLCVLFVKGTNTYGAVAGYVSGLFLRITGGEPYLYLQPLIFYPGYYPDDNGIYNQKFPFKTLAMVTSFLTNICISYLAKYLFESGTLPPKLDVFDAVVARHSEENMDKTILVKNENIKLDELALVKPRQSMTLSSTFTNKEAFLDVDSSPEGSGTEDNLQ
Experiment: CHT inhibitors, dose response, cell-based, 5-point CRC, membrane potential dye (AID 504840)
Type: functional
The source made the active and inactive calls.

smi | IC50
Cc1cc(C)nc(SCc2cc(=O)c(OC(=O)c3ccco3)co2)n1 | 12.3 µM (active)
CCOC(=O)c1nc(S(C)(=O)=O)ncc1Cl | 19.1 µM (active)
CCc1cc(C(=O)Cc2ccc(F)cc2)c(O)cc1O | 8.38 µM (active)
O=C(O)c1ccc(NC2=C(Cl)C(=O)c3ccccc3C2=O)cc1 | 14.5 µM (active)
COc1ccc(C(=O)NCc2cnn(C)c2C)cc1OC1CCN(C(C)C)CC1 | 4.47 µM (active)

* * *

Target: Microphthalmia-associated transcription factor (Homo sapiens)
Assay: TRPM1 promoter luciferase signal decrease, dose response, MITF inhibitor project, cell-based, SK-MEL-5, cherry-picked, set 3 (AID 493073);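 also: SK-MEL-5 melanoma cells with luciferase driven by the MITF target TRPM1 promoter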
Type: functional
The source made the active and inactive calls.
quantity name: AC50

compound | target under test | result
O=C(Cn1ncc(Cl)c(Cl)c1=O)c1ccc(Cl)cc1 | Microphthalmia-associated transcription factor (Homo sapiens) | 8.81 µM (active)
Cn1nnnc1Sc1ncnc2scc(-c3ccc(F)cc3)c12 | Microphthalmia-associated transcription factor (Homo sapiens) | 8.1 µM (active)
Cc1c(/N=C2\C=CC(=O)c3ccccc32)c(=O)n(-c2ccccc2)n1C | Microphthalmia-associated transcription factor (Homo sapiens) | 5.26 µM (active)
CCCCN(C)CC(O)Cn1cc(/C=C/C(=O)c2cccs2)c2ccccc21 (stereo not drawn) | Microphthalmia-associated transcription factor (Homo sapiens) | 14.3 µM (active)
CN(C)c1ccc(/C=C2\SC(=O)N(CCc3nnc(N)s3)C2=O)cc1 | Microphthalmia-associated transcription factor (Homo sapiens) | 2.54 µM (active)
O=C1CCC2S/C(=C/Nc3ccc(C(F)(F)F)cc3)C(=O)N12 (stereo not drawn) | Microphthalmia-associated transcription factor (Homo sapiens) | 3.57 µM (active)
COC(=O)CCS(=O)(=O)c1nc(-c2ccccc2)cc(C(F)(F)F)n1 | Microphthalmia-associated transcription factor (Homo sapiens) | 5.85 µM (active)
COc1ccc(N/N=C/c2c(C(=O)O)ccc3ccccc23)cc1 | Microphthalmia-associated transcription factor (Homo sapiens) | 5.11 µM (active)

* * *

Target: Polyadenylate-binding protein 1 (Homo sapiens, UniProt P11940)
Sequence (P11940 whole entry): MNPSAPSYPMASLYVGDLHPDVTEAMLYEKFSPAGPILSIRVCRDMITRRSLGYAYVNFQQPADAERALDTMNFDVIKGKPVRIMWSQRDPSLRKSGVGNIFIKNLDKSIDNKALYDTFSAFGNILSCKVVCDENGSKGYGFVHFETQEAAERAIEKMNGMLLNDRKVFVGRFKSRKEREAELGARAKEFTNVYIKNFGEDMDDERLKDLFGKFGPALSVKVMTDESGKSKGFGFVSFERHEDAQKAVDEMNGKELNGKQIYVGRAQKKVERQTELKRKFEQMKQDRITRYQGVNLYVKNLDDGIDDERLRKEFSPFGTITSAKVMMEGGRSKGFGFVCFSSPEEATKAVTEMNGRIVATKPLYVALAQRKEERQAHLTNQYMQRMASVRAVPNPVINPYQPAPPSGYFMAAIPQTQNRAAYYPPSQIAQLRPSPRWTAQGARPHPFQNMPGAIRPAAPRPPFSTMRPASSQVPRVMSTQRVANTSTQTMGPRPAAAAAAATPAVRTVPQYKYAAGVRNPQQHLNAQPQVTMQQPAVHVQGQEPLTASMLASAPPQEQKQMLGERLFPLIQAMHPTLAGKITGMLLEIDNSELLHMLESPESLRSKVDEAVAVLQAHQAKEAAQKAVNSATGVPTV
Test: PABP1 MLLE–PAM2 interaction inhibitors, dose response, miRNA deadenylation inhibitor project, biochemical, fluorescence polarization, Cy5-PAM2 peptide, secondary (AID 602260)
Assay type: functional
Details: read-out: IC50_Mean
Active and inactive are the calls of the source.
Below, each entry is listed alongside its reported IC50.
quantity name: IC50

molecule | target under test | result
COc1ccccc1-n1c(N)c(C(N)=O)sc1=S | Polyadenylate-binding protein 1 (Homo sapiens, UniProt P11940) | > 66 µM (inactive)
C[C@H](NS(=O)(=O)c1ccc2c(c1)OCCCO2)C(=O)N1CCN(c2ccc(F)cc2)CC1 | Polyadenylate-binding protein 1 (Homo sapiens, UniProt P11940) | > 66 µM (inactive)
CCN(CC)S(=O)(=O)c1ccc(N2CCOCC2)c(NC(=O)CCC2CCCCC2)c1 | Polyadenylate-binding protein 1 (Homo sapiens, UniProt P11940) | > 66 µM (inactive)
COc1ccccc1NS(=O)(=O)c1cc(NC(=O)Nc2cccc(C)c2)ccc1N1CCCCC1 | Polyadenylate-binding protein 1 (Homo sapiens, UniProt P11940) | > 66 µM (inactive)
C[C@@H]1CCC2[C@](C)(CO)[C@@H](O)CC[C@]2(C)[C@@]12CC[C@@](CO)(CC(=O)O)O2 (stereo not given in full) | Polyadenylate-binding protein 1 (Homo sapiens, UniProt P11940) | > 66 µM (inactive)

* * *

Below, each entry is listed alongside its reported IC50.
Target: Kappa-type opioid receptor (Homo sapiens, UniProt P41145)
Sequence (P41145 whole entry): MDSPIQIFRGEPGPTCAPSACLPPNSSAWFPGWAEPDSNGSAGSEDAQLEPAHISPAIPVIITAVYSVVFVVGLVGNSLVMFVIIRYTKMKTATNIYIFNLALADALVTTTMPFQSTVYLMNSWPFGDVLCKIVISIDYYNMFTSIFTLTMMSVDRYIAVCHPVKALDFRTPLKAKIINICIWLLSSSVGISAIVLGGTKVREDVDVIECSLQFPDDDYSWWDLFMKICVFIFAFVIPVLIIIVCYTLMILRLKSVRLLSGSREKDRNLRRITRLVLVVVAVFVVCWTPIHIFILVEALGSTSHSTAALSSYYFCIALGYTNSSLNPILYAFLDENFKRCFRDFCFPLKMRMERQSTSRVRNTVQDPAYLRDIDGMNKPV
Format: functional
Activity calls are given as the source filed them.

smi | IC50
COc1ccc(-c2cc(=O)n(-c3nc4ccccc4[nH]3)[nH]2)cc1 | 9.08 µM (active)
Oc1c(Cl)cc(Cl)c2cccnc12 | 4.56 µM (active)
Cc1c(/N=C2\C=CC(=O)c3ccccc32)c(=O)n(-c2ccccc2)n1C | 12.1 µM (active)
O=C(Nc1nnc(-c2cccs2)o1)c1cccc(Oc2ccccc2)c1 | 9.8 µM (active)

* * *

Target: UniProtKB Q38C91
Sequence (Q38C91 whole entry): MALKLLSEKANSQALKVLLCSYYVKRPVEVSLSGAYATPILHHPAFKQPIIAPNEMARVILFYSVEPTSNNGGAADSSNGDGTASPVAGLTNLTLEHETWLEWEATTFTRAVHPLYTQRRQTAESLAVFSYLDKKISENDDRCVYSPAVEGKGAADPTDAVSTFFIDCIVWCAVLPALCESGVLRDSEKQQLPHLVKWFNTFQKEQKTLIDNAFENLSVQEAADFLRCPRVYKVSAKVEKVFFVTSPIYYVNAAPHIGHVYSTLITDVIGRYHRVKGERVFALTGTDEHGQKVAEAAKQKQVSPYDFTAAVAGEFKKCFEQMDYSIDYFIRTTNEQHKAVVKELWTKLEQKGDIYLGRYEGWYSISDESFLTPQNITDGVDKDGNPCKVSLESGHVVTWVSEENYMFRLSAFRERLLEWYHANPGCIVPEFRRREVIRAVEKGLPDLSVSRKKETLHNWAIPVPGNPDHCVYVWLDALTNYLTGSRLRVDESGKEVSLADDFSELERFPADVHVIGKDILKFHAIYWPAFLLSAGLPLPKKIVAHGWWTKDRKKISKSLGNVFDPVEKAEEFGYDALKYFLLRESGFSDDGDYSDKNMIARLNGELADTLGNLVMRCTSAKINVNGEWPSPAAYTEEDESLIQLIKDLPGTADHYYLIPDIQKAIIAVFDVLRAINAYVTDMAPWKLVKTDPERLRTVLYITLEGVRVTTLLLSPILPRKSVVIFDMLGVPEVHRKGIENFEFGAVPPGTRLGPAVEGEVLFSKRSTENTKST
Format: functional, Trypanosoma brucei brucei strain 927/4 GUTat10.1
The source made the active and inactive calls.
Outcome codes: active, inactive

compound | assigned label
Cc1ccc(-c2c[nH]c(C(O)c3cc(Cl)cc(Cl)c3)n2)cc1 (centres undefined) | inactive
O=C(CC(=O)Nc1ccc(Cl)c(Cl)c1)N/N=C/c1ccc(O)cc1 | inactive
Cc1c(NS(=O)(=O)c2cc(C(=O)NCc3cccc(Cl)c3)ccc2Cl)c(=O)n(-c2ccccc2)n1C | inactive
O=C(C/C=N\OCc1ccc([N+](=O)[O-])cc1)Nc1ccc(Cl)cc1 | active

* * *

Biological target: UniProtKB Q8VNN2
Experiment: PubChem AID 485352
Type: functional
Activity calls are given as the source filed them.

compound | EC50
O=C(CCN1C(=O)C2C3CC(C(Br)C3Br)C2C1=O)OCC(=O)c1cccc([N+](=O)[O-])c1 (stereo not drawn) | > 40 µM (inactive)
O=C(COC(=O)c1ccc(Br)o1)c1ccc(S(=O)(=O)N2CCCCC2)cc1 | > 40 µM (inactive)
CCN1C(=O)C(=Cc2cccc(OC)c2Oc2ccc([N+](=O)[O-])cc2[N+](=O)[O-])SC1=S | > 40 µM (inactive)
CCN(CC)CC(=O)c1ccc(-c2ccccc2)cc1 | > 40 µM (inactive)
CCCCNC(=S)NNC(=O)CCn1nc(C)c(Br)c1C | > 40 µM (inactive)
Cc1nc(-n2nc3c(c2O)CCCC3)[nH]c(=O)c1Cc1ccccc1 | > 40 µM (inactive)
CCOC(=O)C1=NNC(C(=O)c2ccc(Cl)cc2)C1c1ccccc1 (stereo not drawn) | > 40 µM (inactive)
CC(C)Oc1cccc(C(=O)NC(=S)Nc2cccnc2)c1 | > 40 µM (inactive)

* * *

Below, each entry is listed alongside its reported IC50.
Target: Nonstructural protein 1 (Influenza A virus, UniProt Q194T2)
Format: functional, Influenza A virus (A/California/07/2009(H1N1))
The source made the active and inactive calls.

compound | target under test | IC50
CCCC(=O)NC(c1cccs1)c1cc([N+](=O)[O-])c2cccnc2c1O (stereo not drawn) | Nonstructural protein 1 (Influenza A virus, UniProt Q194T2) | 13.1 µM (active)
Oc1cccc(/C=N/NC(=S)Nc2cccnc2)c1O | Nonstructural protein 1 (Influenza A virus, UniProt Q194T2) | 1.83 µM (active)
Cc1ncc(CO)c(/C=N/NC(=S)Nc2ccc(F)cc2)c1O | Nonstructural protein 1 (Influenza A virus, UniProt Q194T2) | 2.84 µM (active)
O=C(CN1C(=O)C2C3C=CC(C3)C2C1=O)Nc1nc(-c2ccccn2)cs1 (stereo not drawn) | Nonstructural protein 1 (Influenza A virus, UniProt Q194T2) | 10.5 µM (active)
c1cnc2c(c1)ccc1cccnc12 | Nonstructural protein 1 (Influenza A virus, UniProt Q194T2) | 1.03 µM (active)
Oc1cc(Nc2ccncc2)cc2cccnc12 | Nonstructural protein 1 (Influenza A virus, UniProt Q194T2) | 5.11 µM (active)
Cc1c(/N=C2\C=CC(=O)c3ccccc32)c(=O)n(-c2ccccc2)n1C | Nonstructural protein 1 (Influenza A virus, UniProt Q194T2) | 28.7 µM (active)
O=C(Cn1nc2ccccc2n1)N/N=C/c1cc([N+](=O)[O-])ccc1O | Nonstructural protein 1 (Influenza A virus, UniProt Q194T2) | 5.08 µM (active)

Taken from ChEMBL document CHEMBL1201862.
